- System: Plasmodium falciparum TM91C235
- ASSAY_COMMENT: In vitro antimalarial [3H]-hypoxanthine incorporation assay, TM91C235
- Assay type: cell-based
- APPLIED_CONDITIONS: Plasmodium falciparum; P. falciparum TM91C235 (multiple drug resistant isolate), 72 hours exposure
MEASURED_METRIC: IC50 (µg/mL)

Notebook: pull reported IC50 for Plasmodium falciparum TM91C235, entry CC[C@H]1OC(=O)[C@H](C)[C@@H](O[C@H]2C[C@@](C)(OC)[C@@H](O)[C@H](C)O2)[C@H](C)[C@@H](O[C@@H]2O[C@H](C)C[C@H](N(C)C)[C@H]2O)[C@](C)(O)C[C@@H](C)CN(CCCNC(=O)Nc2ccc3c(c2)OCCCO3)[C@H](C)[C@@H](O)[C@]1(C)O.O=CO
0.0618

a: CC[C@H]1OC(=O)[C@H](C)[C@@H](O[C@H]2C[C@@](C)(OC)[C@@H](O)[C@H](C)O2)[C@H](C)[C@@H](O[C@@H]2O[C@H](C)C[C@H](N(C)C)[C@H]2O)[C@](C)(O)C[C@@H](C)CN(CCCNC(=O)Nc2ccc(C)cc2C)[C@H](C)[C@@H](O)[C@]1(C)O.O=CO
b: CC[C@H]1OC(=O)[C@H](C)[C@@H](O[C@H]2C[C@@](C)(OC)[C@@H](O)[C@H](C)O2)[C@H](C)[C@@H](O[C@@H]2O[C@H](C)C[C@H](N(C)C)[C@H]2O)[C@](C)(O)C[C@@H](C)CN(CCCNC(=S)Nc2cc(F)ccc2C)[C@H](C)[C@@H](O)[C@]1(C)O
// compare measured IC50, left a , right b , return larger The response must carry the label of the picked entry.
a

---

- Test system: Plasmodium falciparum TM91C235
- ASSAY_COMMENT: In vitro antimalarial [3H]-hypoxanthine incorporation assay, TM91C235
- Format: cell-based
- APPLIED_CONDITIONS: Plasmodium falciparum; P. falciparum TM91C235 (multiple drug resistant isolate), 72 hours exposure
Property: IC50; scope: individual compounds
Please respond with the number in µg/mL and leave the unit unwritten.

Look at this compound and give its reported IC50. CC[C@H]1OC(=O)[C@H](C)[C@@H](O[C@H]2C[C@@](C)(OC)[C@@H](O)[C@H](C)O2)[C@H](C)[C@@H](O[C@@H]2O[C@H](C)C[C@H](N(C)C)[C@H]2O)[C@](C)(O)C[C@@H](C)CN(CCCNC(=O)Nc2c(C)noc2-c2ccccc2)[C@H](C)[C@@H](O)[C@]1(C)O.O=CO
0.511

Look at this compound and give its reported IC50. CC[C@H]1OC(=O)[C@H](C)[C@@H](O[C@H]2C[C@@](C)(OC)[C@@H](O)[C@H](C)O2)[C@H](C)[C@@H](O[C@@H]2O[C@H](C)C[C@H](N(C)C)[C@H]2O)[C@](C)(O)C[C@@H](C)CN(CCCNC(=O)Nc2cc(F)cc3c2OCOC3)[C@H](C)[C@@H](O)[C@]1(C)O.O=CO
0.227

Proceeding to the next compound to report its IC50.
Look at this compound and give its reported IC50. CC[C@H]1OC(=O)[C@H](C)[C@@H](O[C@H]2C[C@@](C)(OC)[C@@H](O)[C@H](C)O2)[C@H](C)[C@@H](O[C@@H]2O[C@H](C)C[C@H](N(C)C)[C@H]2O)[C@](C)(O)C[C@@H](C)CN(CCCNC(=S)Nc2ccc(Cl)cc2)[C@H](C)[C@@H](O)[C@]1(C)O
0.103

---

- System: Plasmodium falciparum TM91C235
- ASSAY_COMMENT: In vitro antimalarial [3H]-hypoxanthine incorporation assay, TM91C235
- Assay type: cell-based
- APPLIED_CONDITIONS: Plasmodium falciparum; P. falciparum TM91C235 (multiple drug resistant isolate), 72 hours exposure
MEASURED_METRIC: IC50 (µg/mL)

Previously resolved entries follow.
Notebook: pull reported IC50 for Plasmodium falciparum TM91C235, entry CC[C@H]1OC(=O)[C@H](C)[C@@H](O[C@H]2C[C@@](C)(OC)[C@@H](O)[C@H](C)O2)[C@H](C)[C@@H](O[C@@H]2O[C@H](C)C[C@H](N(C)C)[C@H]2O)[C@](C)(O)C[C@@H](C)CN(CCCNC(=S)Nc2ccc(/N=N/c3ccccc3)cc2)[C@H](C)[C@@H](O)[C@]1(C)O
0.0993

Notebook: pull reported IC50 for Plasmodium falciparum TM91C235, entry CC[C@H]1OC(=O)[C@H](C)[C@@H](O[C@H]2C[C@@](C)(OC)[C@@H](O)[C@H](C)O2)[C@H](C)[C@@H](O[C@@H]2O[C@H](C)C[C@H](N(C)C)[C@H]2O)[C@](C)(O)C[C@@H](C)CN(CCCNC(=O)Nc2ccc(OC)c(OC3CCCC3)c2)[C@H](C)[C@@H](O)[C@]1(C)O
0.142

a: CC[C@H]1OC(=O)[C@H](C)[C@@H](O)[C@H](C)[C@@H](O[C@@H]2O[C@H](C)C[C@H](N(C)C)[C@H]2O)[C@](C)(O)C[C@@H](C)CN(CCCN(CCC#N)C(=S)NCCc2ccccc2)[C@H](C)[C@@H](O)[C@]1(C)O
b: CC[C@H]1OC(=O)[C@H](C)[C@@H](O[C@H]2C[C@@](C)(OC)[C@@H](O)[C@H](C)O2)[C@H](C)[C@@H](O[C@@H]2O[C@H](C)C[C@H](N(C)C)[C@H]2O)[C@](C)(O)C[C@@H](C)CN(CCCNC(=O)NCc2ccc(OC)cc2)[C@H](C)[C@@H](O)[C@]1(C)O
// compare measured IC50, left a , right b , return larger The response must carry the label of the picked entry.
b
(b: 0.462 µg/mL, a: 0.128 µg/mL)

---

- Tested on: Plasmodium falciparum TM91C235
- ASSAY_COMMENT: In vitro antimalarial [3H]-hypoxanthine incorporation assay, TM91C235
- Format: cell-based
- APPLIED_CONDITIONS: Plasmodium falciparum; P. falciparum TM91C235 (multiple drug resistant isolate), 72 hours exposure
MEASURED_METRIC: IC50 (µg/mL)
Please respond with the number in µg/mL and leave the unit unwritten.

Previously resolved entries follow.
Notebook: pull reported IC50 for Plasmodium falciparum TM91C235, entry CC[C@H]1OC(=O)[C@H](C)[C@@H](O[C@H]2C[C@@](C)(OC)[C@@H](O)[C@H](C)O2)[C@H](C)[C@@H](O[C@@H]2O[C@H](C)C[C@H](N(C)C)[C@H]2O)[C@](C)(O)C[C@@H](C)CN(CCCNC(=S)Nc2ccc(C#N)cc2)[C@H](C)[C@@H](O)[C@]1(C)O
0.0745

Notebook: pull reported IC50 for Plasmodium falciparum TM91C235, entry CC[C@H]1OC(=O)[C@H](C)[C@@H](O[C@H]2C[C@@](C)(OC)[C@@H](O)[C@H](C)O2)[C@H](C)[C@@H](O[C@@H]2O[C@H](C)C[C@H](N(C)C)[C@H]2O)[C@](C)(O)C[C@@H](C)CN(CCCNC(=S)Nc2ccc(N(CC)CC)cc2)[C@H](C)[C@@H](O)[C@]1(C)O.O=CO
0.312

Next:
Notebook: pull reported IC50 for Plasmodium falciparum TM91C235, entry CC[C@H]1OC(=O)[C@H](C)[C@@H](O[C@H]2C[C@@](C)(OC)[C@@H](O)[C@H](C)O2)[C@H](C)[C@@H](O[C@@H]2O[C@H](C)C[C@H](N(C)C)[C@H]2O)[C@](C)(O)C[C@@H](C)CN(CCCNC(=O)Nc2ccc(C(F)(F)F)cc2)[C@H](C)[C@@H](O)[C@]1(C)O.O=CO
0.0863

---

- Tested on: Plasmodium falciparum TM91C235
- ASSAY_COMMENT: In vitro antimalarial [3H]-hypoxanthine incorporation assay, TM91C235
- Assay type: cell-based
- APPLIED_CONDITIONS: Plasmodium falciparum; P. falciparum TM91C235 (multiple drug resistant isolate), 72 hours exposure
Property: IC50; scope: individual compounds
Please respond with the number in µg/mL and leave the unit unwritten.

Notebook: pull reported IC50 for Plasmodium falciparum TM91C235, entry CC[C@H]1OC(=O)[C@H](C)[C@@H](O[C@H]2C[C@@](C)(OC)[C@@H](O)[C@H](C)O2)[C@H](C)[C@@H](O[C@@H]2O[C@H](C)C[C@H](N(C)C)[C@H]2O)[C@](C)(O)C[C@@H](C)CN(CCCNC(=S)Nc2sc3c(c2C(=O)OC)CCCC3)[C@H](C)[C@@H](O)[C@]1(C)O [Example 148]
0.426

Proceeding to the next compound to report its IC50.
Notebook: pull reported IC50 for Plasmodium falciparum TM91C235, entry CCC(C)NC(=O)NCCCN1C[C@H](C)C[C@@](C)(O)[C@H](O[C@@H]2O[C@H](C)C[C@H](N(C)C)[C@H]2O)[C@@H](C)[C@H](O[C@H]2C[C@@](C)(OC)[C@@H](O)[C@H](C)O2)[C@@H](C)C(=O)O[C@H](CC)[C@@](C)(O)[C@H](O)[C@H]1C (some centres unmarked) [Example 55]
1.05

Just for reference, patent US20080200404A1 is where these values come from.
